Experiment: Cytotoxicity assay in MT-4 cells
Format: cell-based
Conditions: human; uninfected MT-4 cells, 5 days incubation, Cell Titer Glo; read-out: MT4 CC50
Parameter Measured: CC50 at 5 days

CCCCC/C=C\C/C=C\CCCCCCCC(=O)Oc1c2n(cc(C(=O)NCc3ccc(F)cc3F)c1=O)[C@@H]1CN(C2=O)[C@@H](C)CC[C@]12CC(OC)=NO2; ≥ 50 µM
CCC(=O)OCOc1c2n(cc(C(=O)NCc3ccc(F)cc3F)c1=O)[C@@H]1CN(C2=O)[C@@H](C)CC[C@]12CC(OC)=NO2; 28.4 µM

Tell me the measured CC50 at 5 days of CCCCCCCCCCCCCCCCOC(=O)OCOc1c2n(cc(C(=O)NCc3ccc(F)cc3F)c1=O)[C@@H]1CN(C2=O)[C@@H](C)CC[C@]12CC(OC)=NO2 , please.
≥ 50 µM

====

Experiment: Cytotoxicity assay in MT-4 cells
Type: cell-based
Settings: human; uninfected MT-4 cells, 5 days incubation, Cell Titer Glo; read-out: MT4 CC50
Below is a list of entries, each paired with its recorded CC50 at 5 days value.
Express the result in µM but write the number alone.

Guide cases for CC50 at 5 days, answers given:
COC1=NO[C@@]2(CC[C@H](C)N3C[C@H]2n2cc(C(=O)NCc4ccc(F)cc4F)c(=O)c(OCOC(=O)OCCCCC(C)C)c2C3=O)C1; 37.2
COC1=NO[C@@]2(CC[C@H](C)N3C[C@H]2n2cc(C(=O)NCc4ccc(F)cc4F)c(=O)c(OCOC(C)=O)c2C3=O)C1; 16

Tell me the measured CC50 at 5 days of CC1=NO[C@@]2(CC[C@H](C)N3C[C@H]2n2cc(C(=O)NCc4ccc(F)cc4F)c(=O)c(OCOC(=O)OC(C)C)c2C3=O)C1 , please.
31.7

Tell me the measured CC50 at 5 days of COC(=O)Oc1c2n(cc(C(=O)NCc3ccc(F)cc3F)c1=O)[C@@H]1CN(C2=O)[C@@H](C)CC[C@]12CC(OC)=NO2 , please.
19.8

Tell me the measured CC50 at 5 days of COC(=O)N[C@H](C(=O)Oc1c2n(cc(C(=O)NCc3ccc(F)cc3F)c1=O)[C@@H]1CN(C2=O)[C@@H](C)CC[C@]12CC(OC)=NO2)C(C)C , please.
19.8

====

Assay: Cytotoxicity assay in MT-4 cells
Format: cell-based
Details: human; uninfected MT-4 cells, 5 days incubation, Cell Titer Glo; read-out: MT4 CC50
Experimental: Compounds were tested in a high-throughput 384-well assay format for their ability to inhibit the replication of HIV-1 (IIIB) in MT-4 cells. […] After 5 days incubation in a humidified and temperature controlled incubator (37° C.), Cell Titer Glo (Promega) was added to the assay plates and chemiluminescence read using an Envision plate-reader. […]
In plain terms, low CC50 at 5 days, meaning strictly below 20 µM, gives Criterion met, and everything else gives Criterion not met.

Some solved entries appear below for comparison.
COC1=NO[C@@]2(CC[C@H](C)N3C[C@H]2n2cc(C(=O)NCc4ccc(F)cc4F)c(=O)c(OC(=O)CCC4CCCC4)c2C3=O)C1; Criterion not met
CCCCCOC(=O)Oc1c2n(cc(C(=O)NCc3ccc(F)cc3F)c1=O)[C@@H]1CN(C2=O)[C@@H](C)CC[C@]12CC(OC)=NO2; Criterion not met
CCCCCCCOC(=O)Oc1c2n(cc(C(=O)NCc3ccc(F)cc3F)c1=O)[C@@H]1CN(C2=O)[C@@H](C)CC[C@]12CC(C)=NO2; Criterion met
CC1=NO[C@@]2(CC[C@H](C)N3C[C@H]2n2cc(C(=O)NCc4ccc(F)cc4F)c(=O)c(OC(=O)OCCC(C)C)c2C3=O)C1; Criterion met
CCC(=O)OCOc1c2n(cc(C(=O)NCc3ccc(F)cc3F)c1=O)[C@@H]1CN(C2=O)[C@@H](C)CC[C@]12CC(C)=NO2; Criterion not met
COC[C@H](C)OC(=O)OCOc1c2n(cc(C(=O)NCc3ccc(F)cc3F)c1=O)[C@@H]1CN(C2=O)[C@@H](C)CC[C@]12CC(OC)=NO2; Criterion not met
CC1=NO[C@@]2(CC[C@H](C)N3C[C@H]2n2cc(C(=O)NCc4ccc(F)cc4F)c(=O)c(O[C@@H](C)OC(=O)OC(C)C)c2C3=O)C1 (single isomer, unassigned); Criterion not met
CC1=NO[C@@]2(CC[C@H](C)N3C[C@H]2n2cc(C(=O)NCc4ccc(F)cc4F)c(=O)c(OC(=O)OCCCCCCC(C)C)c2C3=O)C1; Criterion met

Now, please, on to the next compound.
Lab note: CC50 at 5 days threshold 20 µM. Does this compound come in strictly under it? CC1=NO[C@@]2(CC[C@H](C)N3C[C@H]2n2cc(C(=O)NCc4ccc(F)cc4F)c(=O)c(OCOC(=O)OCCCC(C)C)c2C3=O)C1
Criterion not met

Attribution: patent US20250122219A1
